Data origin, for the record: ChEMBL document CHEMBL2069196

Entries with reported pIC50 on Acetylcholinesterase (Rattus norvegicus, UniProt P37136)
Sequence (P37136 whole entry): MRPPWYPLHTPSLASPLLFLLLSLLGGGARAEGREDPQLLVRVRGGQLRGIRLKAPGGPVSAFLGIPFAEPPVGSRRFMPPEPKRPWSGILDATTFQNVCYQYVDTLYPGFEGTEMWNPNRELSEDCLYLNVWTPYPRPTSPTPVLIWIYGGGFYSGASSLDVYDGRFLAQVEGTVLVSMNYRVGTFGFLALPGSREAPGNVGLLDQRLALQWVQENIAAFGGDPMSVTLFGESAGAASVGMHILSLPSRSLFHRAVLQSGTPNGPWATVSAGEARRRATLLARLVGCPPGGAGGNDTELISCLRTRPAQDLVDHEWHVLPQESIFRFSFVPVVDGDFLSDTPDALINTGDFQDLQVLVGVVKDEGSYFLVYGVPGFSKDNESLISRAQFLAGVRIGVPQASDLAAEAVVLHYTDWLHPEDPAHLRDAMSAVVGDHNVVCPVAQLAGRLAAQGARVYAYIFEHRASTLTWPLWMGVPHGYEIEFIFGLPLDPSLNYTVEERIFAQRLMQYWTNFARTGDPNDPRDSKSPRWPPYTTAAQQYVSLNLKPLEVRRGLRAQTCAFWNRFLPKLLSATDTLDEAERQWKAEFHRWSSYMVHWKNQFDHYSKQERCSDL
# log scale: pIC50 equals minus log10 of the concentration in mol/L

# annotated cases, reported pIC50 shown
## Input Record lookup: for Acetylcholinesterase (Rattus norvegicus, UniProt P37136), what pIC50 belongs to Cc1ccc(N2O[C@H]3C(=O)N(c4ccc(C(=O)O)cc4)C(=O)[C@H]3[C@@H]2c2ccc(Cl)cc2)cc1 ?
## Output 7.69

## Input Next entry: O=C(O)c1ccc(N2C(=O)[C@H]3[C@H](ON(c4ccccc4)[C@H]3c3ccccc3O)C2=O)cc1 (relative stereo)
## Output 7.62

Continuing:
## Input Record lookup: for Acetylcholinesterase (Rattus norvegicus, UniProt P37136), what pIC50 belongs to Cc1ccc(N2O[C@@H]3C(=O)N(c4ccc(C(=O)O)cc4)C(=O)[C@@H]3[C@@H]2c2ccccc2)cc1 (relative stereo) ?
## Output 7.64

---

Entries with reported IC50 on Acetylcholinesterase (Rattus norvegicus)
A number alone suffices; assume nM.

# annotated cases, reported IC50 shown
## Input What value of IC50 has been recorded for this entry: COc1ccccc1[C@H]1[C@@H]2C(=O)N(c3ccc(C(=O)O)cc3)C(=O)[C@@H]2ON1c1ccccc1 (relative stereo)
## Output 20.6

## Input Next entry: COc1ccccc1[C@H]1[C@H]2C(=O)N(c3ccc(C(=O)O)cc3)C(=O)[C@H]2ON1c1ccccc1 (relative stereo)
## Output 19.2

Proceeding to the next compound to report its IC50.
## Input What value of IC50 has been recorded for this entry: O=C(O)c1ccc(N2C(=O)[C@@H]3[C@@H](ON(c4ccccc4)[C@H]3c3ccccc3[N+](=O)[O-])C2=O)cc1 (relative stereo)
## Output 26.9
